- TARGET OF ASSAY: Genome polyprotein (Dengue virus type 2 (strain 16681-PDK53))
- ASSAY TEXT: flavivirus cap methylation enzyme inhibition – biochemical, confirmation dose response, primary screen (AID 588689)
- ASSAY CONTEXT: Dengue-2 NS5 methyltransferase capping enzyme assay, at 25 µM, stronger effect = higher value
Hit rate of the full screen: of about 340,000 compounds, about 1,000 (0.29%) were called active. Not all results are given here. Results with a measured potency or affinity are listed apart.
REPORTED PROPERTY: inhibition (%)
Give bare numbers, in %.

Record inhibition per entry; entries follow.
1. CC1Cc2ccccc2N1C(=O)CSc1ncccn1 (stereo not given)
2. Cc1ccc(NC2=C/C(=N/S(=O)(=O)c3cccs3)c3ccccc3C2=O)cc1C
3. COc1cc(C2c3cc4c(cc3OC(NCCc3ccccc3)C2C)OCO4)cc(OC)c1OC (stereo not given)
4. Cc1ccc(S(=O)(=O)/N=C2\C=C(Nc3cccc(C(=O)O)c3)C(=O)c3ccccc32)cc1
5. O=S(=O)(O)c1ccc(N=Nc2ccccc2)cc1
6. O=C1C(Nc2ccccc2)=C/C(=N/S(=O)(=O)c2cccs2)c2ccccc21

Response line:
1: -4.43; 2: 1.44; 3: -4.03; 4: 9.52; 5: -9.54; 6: 0

---

- TARGET OF ASSAY: Genome polyprotein (Dengue virus type 2 (strain 16681-PDK53)) (UniProt P29991)
- ASSAY TEXT: flavivirus cap methylation enzyme inhibition – biochemical, confirmation dose response, primary screen (AID 588689)
- ASSAY CONTEXT: Dengue-2 NS5 methyltransferase capping enzyme assay, at 25 µM, stronger effect = higher value
The campaign covered roughly 340,000 compounds. About 1,000 (0.29%) were called active. Not all results are given here. Entries with a potency or affinity are not part of this list.
REPORTED PROPERTY: inhibition (%)
Answers are plain numbers, in %.

MOLECULE	inhibition, %
CCOC(=O)c1c(-c2ccc(F)cc2)csc1NC(=O)C1CC=CCC1C(=O)O (configuration not stated)	9.56
Cc1ccc(C)c2c1c1ccccc1n2C	0.78

Record inhibition per entry; entries follow.
1. Cc1ccc2c(c1)c1ccc3c(c1n2C)C(=O)C=CC3=O
2. COC(=O)c1c(-c2ccccc2)csc1NC(=O)C1CC=CCC1C(=O)O (configuration not stated)
3. Cc1ccc(S(=O)(=O)N(CC(=O)Nc2cccc(C(F)(F)F)c2)C(=O)N2CCN(C)CC2)cc1
4. COc1ccc(C(=O)N2CCN(c3ccc(NC(=O)c4ccco4)cc3)CC2)cc1
5. Cc1ccccc1-c1c(C)oc2cc(O)ccc2c1=O
6. OCCN1CCN(c2cc(-c3ccccc3)c3ccccc3n2)CC1
7. CSc1cccc(NC(=O)C2CCN(S(=O)(=O)c3cnc[nH]3)CC2)c1
8. N#CCc1ccc(NC(=O)Cn2c(=O)oc3ccccc32)cc1

Response line:
1: 47.6; 2: -4.1; 3: -4.32; 4: 0; 5: 1.35; 6: -4.36; 7: -4.39; 8: -3.26

Record inhibition per entry; entries follow.
1. CCc1ccc(N2C(=O)CC(Cn3nc(C)cc3C)C2=O)cc1 (configuration not stated)
2. C[C@H](CO)N1C[C@H](C)[C@H](CN(C)C(=O)Nc2ccccc2)OCc2cnnn2CCCC1=O
3. CCOC(=O)c1c(-c2ccc(C)cc2)csc1NC(=O)C1CC=CCC1C(=O)O (configuration not stated)
4. C/C(=N/NC(=O)Cc1ccccc1)c1ccc(C)s1

Response line:
1: -5.48; 2: 1.65; 3: 14.8; 4: 5.19

Record inhibition per entry; entries follow.
1. O=C(c1cccc(S(=O)(=O)N2CCN(c3ccc(F)cc3)CC2)c1)N1CCCC1
2. O=C(Nc1cccc(-n2cccn2)c1)C1CCCN(Cc2cc3ccccc3[nH]2)C1 (configuration not stated)
3. C=CCn1c(SCC(=O)NC(=O)NCCC)nnc1C1CCCCC1
4. CC(=O)N1CCN(c2ccc([N+](=O)[O-])cc2C#N)CC1
5. Cn1c(=O)c2sccc2n(CC(=O)NCCC2=CCCCC2)c1=O

Response line:
1: -6.98; 2: -16.8; 3: 3.46; 4: -1.43; 5: -7.27
